// data source = PubChem BioAssay

- test system: Follistatin-related protein 3 (Homo sapiens) (UniProt O95633)
- Sequence (O95633 whole entry, looked up): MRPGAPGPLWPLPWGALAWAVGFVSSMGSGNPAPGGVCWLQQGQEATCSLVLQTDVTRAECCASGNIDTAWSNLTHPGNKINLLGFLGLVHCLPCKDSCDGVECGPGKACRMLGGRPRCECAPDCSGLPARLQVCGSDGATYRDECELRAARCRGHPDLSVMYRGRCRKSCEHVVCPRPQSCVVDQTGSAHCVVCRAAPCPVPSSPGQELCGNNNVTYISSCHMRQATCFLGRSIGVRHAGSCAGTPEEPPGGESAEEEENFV
- assay remarks: FSTL3 binders on small-molecule microarrays, primary screen, biochemical, small-molecule microarray, 635 nm fluorescence (AID 1105);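 note: score merges emission near 667 nm and signal to noise per printed spot across three slides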
- particulars: FSTL3 binding, higher = more signal
Binary call on composite z-score: TRUE from 1 upward, FALSE beneath that.

Please tell me: is the molecule CC(C)=C1C(=O)C(c2ccccc2)=C2CN3C(=O)N(CCc4ccccc4)C(=O)[C@]3(Cc3ccccc3)[C@H]21 at or over 1 in terms of composite z-score?
FALSE

Please tell me: is the molecule CC(C)CN1C(=O)[C@@]2(Cc3ccccc31)c1ccccc1C(=O)N(C1CCCCC1)[C@H]2c1ccc(CO)cc1 at or over 1 in terms of composite z-score?
FALSE

Please tell me: is the molecule CCOC(=O)C1=CC[C@@H](c2ccc(-c3ccc(OCc4ccccc4)cc3)c(OC)c2)N(S(=O)(=O)c2ccc(C)cc2)[C@H]1c1ccccc1 at or over 1 in terms of composite z-score?
TRUE

Please tell me: is the molecule C[C@@H]1C=CCC(=O)OC[C@H]2O[C@@H](C=C[C@@H]2O)[C@H](C)C=CCC(=O)OC[C@H]2O[C@H]1C=C[C@@H]2O at or over 1 in terms of composite z-score?
TRUE

Please tell me: is the molecule Cc1ccc(N2C(=O)c3ccccc3[C@@H](C(=O)NCc3ccccc3)[C@@H]2c2ccc(CO)cc2)nc1 at or over 1 in terms of composite z-score?
FALSE

Please tell me: is the molecule C[N+](C)(C)CCCCNC(=O)[C@@H]1C[C@@H]2C(=O)N3CCC[C@H]3C(=O)N2[C@@H]1c1cccc(OCCO)c1 at or over 1 in terms of composite z-score?
TRUE

Please tell me: is the molecule CCCCO[C@H]1C[C@H]2C(Br)=C[C@@]1(CO)C(=O)[C@]21CO1 at or over 1 in terms of composite z-score?
FALSE
